target_or_system: HLA-B*39:01
test: IEDB peptide-MHC binding, purified MHC/competitive/fluorescence; filed as Kd, often an IC50 or EC50 that approximates it; bounds were set here for any values at or beyond the usual limits of such assays
stated_conditions: source organism: Bacillus thuringiensis str. Al Hakam
measured_attribute: Kd (nM)
Report only the number, with the unit nM understood.

Reported Kd, sequence `YSAWGGYNL` : ____
404

###

target_or_system: HLA-B*83:01
test: IEDB peptide-MHC binding, purified MHC/competitive/fluorescence; filed as Kd, often an IC50 or EC50 that approximates it; bounds were set here for any values at or beyond the usual limits of such assays
stated_conditions: source organism: Yersinia pestis Nepal516
measured_attribute: Kd

Reported Kd, sequence `MMMSTAVAF` : ____
≥ 5 µM

Reference source: the Immune Epitope Database (IEDB)
